The reported measurements were obtained from ChEMBL document CHEMBL1221295.

Target: Melatonin receptor type 1A (Homo sapiens, UniProt P48039)
Sequence (P48039 whole entry): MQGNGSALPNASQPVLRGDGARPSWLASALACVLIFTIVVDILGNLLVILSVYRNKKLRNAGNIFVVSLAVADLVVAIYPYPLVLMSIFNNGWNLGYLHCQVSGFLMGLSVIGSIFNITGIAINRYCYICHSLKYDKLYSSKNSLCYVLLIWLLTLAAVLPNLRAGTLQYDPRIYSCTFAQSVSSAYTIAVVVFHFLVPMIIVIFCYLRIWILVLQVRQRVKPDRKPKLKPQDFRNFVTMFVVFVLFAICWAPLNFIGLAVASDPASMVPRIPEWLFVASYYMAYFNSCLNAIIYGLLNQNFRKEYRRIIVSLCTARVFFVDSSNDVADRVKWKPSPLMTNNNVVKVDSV
Assay: Intrinsic activity at human cloned MT1 receptor expressed in […] NIH3T3 cells assessed as increase of [35S]GTPgammaS binding relative to melatonin
Format: functional, cell-based

COMPOUND: COc1ccc(SCCNC(C)=O)cc1
Ratio: 0.48
//
COMPOUND: CCCC(=O)NC[C@@H](C)Oc1cccc(OC)c1
Ratio: 1.06
//
COMPOUND: CC(=O)N[C@H](C)CSc1ccccc1
Ratio: -0.05
//
COMPOUND: COc1cccc(O[C@H](C)CNC(C)=O)c1
Ratio: 0.79
//
COMPOUND: CC(=O)N[C@@H](C)COc1ccccc1
Ratio: 0.05
//
COMPOUND: COc1ccccc1OCCNC(C)=O
Ratio: 0.23
//
COMPOUND: COc1cccc(OC(C)CNC(=O)C2CC2)c1 (centres undefined)
Ratio: 0.91
//
COMPOUND: CC(=O)NCC(C)Oc1ccccc1 (centres undefined)
Ratio: 0.48
//
COMPOUND: COc1cccc(O[C@@H](C)CNC(=O)C2CC2)c1
Ratio: 1.01
//
COMPOUND: COc1ccc(OC(C)CNC(C)=O)cc1 (centres undefined)
Ratio: 0.15
//
COMPOUND: COc1cccc(OCC(C)NC(C)=O)c1 (centres undefined)
Ratio: 0.63
//
COMPOUND: CCCC(=O)NC[C@H](C)Oc1cccc(OC)c1
Ratio: 1.01
//
COMPOUND: COc1cccc(SC[C@@H](C)NC(C)=O)c1
Ratio: 0.29
//
COMPOUND: COc1ccc(OCCNC(C)=O)cc1
Ratio: 0.26
//
COMPOUND: COc1cccc(OCCNC(C)=O)c1
Ratio: 0.81
//
COMPOUND: CCCC(=O)NCC(C)Oc1cccc(OC)c1 (centres undefined)
Ratio: 1.04
//
COMPOUND: COc1cccc(OC[C@H](C)NC(C)=O)c1
Ratio: 0.75
//
COMPOUND: COc1cccc(SCCNC(C)=O)c1
Ratio: 0.85
//
COMPOUND: COc1cccc(O[C@@H](C)CNC(C)=O)c1
Ratio: 1.01
//
COMPOUND: COc1cccc(O[C@H](C)CNC(=O)C2CC2)c1
Ratio: 0.9
//
COMPOUND: COc1cccc(OC(C)CNC(C)=O)c1 (centres undefined)
Ratio: 1.01
//
COMPOUND: COc1cccc(S[C@@H](C)CNC(=O)C2CC2)c1
Ratio: 0.8
//
COMPOUND: COc1ccccc1OC(C)CNC(C)=O (centres undefined)
Ratio: 0.19
//
COMPOUND: CC(=O)NCCSc1ccccc1
Ratio: 0.22
//
COMPOUND: CCCC(=O)NC[C@H](C)Sc1cccc(OC)c1
Ratio: 0.99
//
COMPOUND: COc1cccc(OC[C@@H](C)NC(C)=O)c1
Ratio: 0.35
//
COMPOUND: CC(=O)N[C@H](C)COc1ccccc1
Ratio: 0.17
//
COMPOUND: CCCC(=O)NCC(C)Sc1cccc(OC)c1 (centres undefined)
Ratio: 1.02
//
COMPOUND: COc1cccc(SC(C)CNC(=O)C2CC2)c1 (centres undefined)
Ratio: 0.77

###

Target: Melatonin receptor type 1B (Homo sapiens, UniProt P49286)
Sequence (P49286 whole entry): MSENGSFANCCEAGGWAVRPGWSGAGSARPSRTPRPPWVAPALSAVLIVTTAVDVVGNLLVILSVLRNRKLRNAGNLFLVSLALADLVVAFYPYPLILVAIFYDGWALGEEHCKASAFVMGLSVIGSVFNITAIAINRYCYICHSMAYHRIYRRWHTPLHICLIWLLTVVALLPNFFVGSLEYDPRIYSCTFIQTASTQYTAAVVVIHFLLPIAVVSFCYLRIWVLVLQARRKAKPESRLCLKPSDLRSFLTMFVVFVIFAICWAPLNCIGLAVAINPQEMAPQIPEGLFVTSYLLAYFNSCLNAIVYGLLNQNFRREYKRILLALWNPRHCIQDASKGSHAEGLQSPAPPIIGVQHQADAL

COMPOUND: COc1cccc(S[C@H](C)CNC(C)=O)c1
Ki: 661 nM
//
COMPOUND: COc1cccc(SCCNC(C)=O)c1
Ki: 39.8 nM
//
COMPOUND: COc1cccc(OCC(C)NC(C)=O)c1 (centres undefined)
Ki: 347 nM
//
COMPOUND: COc1cccc(OC(C)CNC(=O)C2CC2)c1 (centres undefined)
Ki: 12.9 nM
